Assay: Cell cytotoxicity assay A549 (CellTiter-Glo, 72 hours)
Assay type: cell-based
Details: human, A549 cells, Table 3; 72 hours, top concentration of 50 μM; read-out: Cytotox A549 EC50
property_name: EC50 at 72 h (µM)
Entry rule: numbers only, all in µM.

input: Dear colleague, I am looking for the recorded EC50 at 72 h of the following molecule: Cn1cc(NC(=O)c2cnn3cccnc23)c(-c2cc(S(=O)(=O)C(F)F)ccc2OC(F)F)n1
output: 1.66

input: Now try C[C@H](Cn1cc(S(=O)(=O)c2ccc(OC(F)F)c(-c3nn(C)cc3NC(=O)c3cnn4cccnc34)c2)cn1)N(C)C .
output: 43

input: Also CN(C)CCn1cc(S(=O)(=O)c2ccc(OC(F)F)c(-c3nn(C)cc3NC(=O)c3cnn4cccnc34)c2)cn1 ?
output: 33

input: Ok, now C[C@H](O)CS(=O)(=O)c1ccc(OC(F)F)c(-c2nn(C)cc2NC(=O)c2cnn3cccnc23)c1 (stereo in doubt)
output: 25

input: Now consider Cn1cc(NC(=O)c2cnn3cccnc23)c(-c2cc(S(=O)(=O)c3ccn(C)c(=O)c3)ccc2OC(F)F)n1 .
output: 24

input: // query: CCS(=O)(=O)c1ccc(OC(F)F)c(-c2nn(C)cc2NC(=O)c2cnn3cccnc23)c1
output: 6.75

***
input: Any idea what EC50 at 72 h was measured for Cn1cc(NC(=O)c2cnn3cccnc23)c(-c2cc(S(C)(=O)=O)ccc2OC(F)F)n1 ?
output: 8.7

input: Then what about the molecule Cn1cc(NC(=O)c2cnn3cccnc23)c(-c2cc(S(=O)(=O)N3CCC3)ccc2OC(F)F)n1 ?
output: 7.5

input: Please do the same for CN(C)S(=O)(=O)c1ccc(OC(F)F)c(-c2nn(C)cc2NC(=O)c2cnn3cccnc23)c1 as well.
output: 6.1

input: And for CNS(=O)(=O)c1ccc(OC(F)F)c(-c2nn(C)cc2NC(=O)c2cnn3cccnc23)c1 ?
output: 11

input: Next molecule up: Cn1cc(NC(=O)c2cnn3cccnc23)c(-c2cc(S(=O)(=O)c3cccc(O)c3)ccc2OC(F)F)n1
output: 6.4
